Biological target: Sterol O-acyltransferase 1 (Rattus norvegicus)
Sequence (O70536 whole entry): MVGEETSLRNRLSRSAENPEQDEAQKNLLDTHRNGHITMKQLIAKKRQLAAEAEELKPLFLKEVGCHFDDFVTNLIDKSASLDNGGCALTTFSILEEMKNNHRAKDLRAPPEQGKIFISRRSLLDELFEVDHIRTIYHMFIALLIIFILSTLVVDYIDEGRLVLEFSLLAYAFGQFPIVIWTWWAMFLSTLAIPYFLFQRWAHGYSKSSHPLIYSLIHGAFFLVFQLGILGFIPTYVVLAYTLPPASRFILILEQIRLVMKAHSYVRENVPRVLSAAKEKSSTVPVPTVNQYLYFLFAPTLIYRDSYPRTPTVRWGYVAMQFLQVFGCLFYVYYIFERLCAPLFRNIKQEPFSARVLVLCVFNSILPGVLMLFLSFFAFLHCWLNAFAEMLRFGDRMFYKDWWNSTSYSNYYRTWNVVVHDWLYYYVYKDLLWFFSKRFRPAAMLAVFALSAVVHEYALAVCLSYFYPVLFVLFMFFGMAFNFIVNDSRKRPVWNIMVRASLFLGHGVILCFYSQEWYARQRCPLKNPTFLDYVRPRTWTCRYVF
measurement kind: IC50 (nM)

Would you please look over these solved cases?
compound	endpoint unit	IC50
CCCCCCCCCCCCc1cc(C(C(=O)Nc2c(C(C)C)cccc2C(C)C)c2ccccc2)on1 (centres undefined)	nM	19
CCCCCCCCCCCCc1cn(C(C(=O)Nc2c(OC)cc(OC)cc2OC)c2ccccc2)nn1 (centres undefined)	nM	22

P: CCCCCCCCCCCCc1nnc(C(C(=O)Nc2c(OC)cc(OC)cc2OC)c2ccccc2)o1 (centres undefined)
Q: CCCCCCCCCCCCc1cc(CC(=O)Nc2c(OC)cc(OC)cc2OC)on1
Data request: // returns P or Q , whichever has the lower IC50 State your choice using its label.
Data returned: P
(P: 17 nM, Q: 32 nM)
